List of protein stability index values.
# Tested on: Saccharomyces cerevisiae
# procedureSummary: protein stability index of tFT-peptide fusion (C-terminal peptide) (PSI (0-1 scale)); higher = more stable (slower turnover)
# testParameters: genetic background: wild type; temperature: 30 C
readoutLabel: protein stability index

* ESRRKRRVAGPN | 0.707
* KREKAQEGQGGD | 0.709
* SPRLQAFPGSRA | 0.713
* CECVGGFGFLGS | 0.682
* SGGGELGATSGG | 0.691
* PPPQYILPPRFP | 0.691
* GGGGGGIGVGMG | 0.705
* ARPPLARITRPS | 0.686
* VGCSVGHFQRLF | 0.677
* SAGIRPFIQVHI | 0.653
* KLKTSHILIKQT | 0.367
* APAPPPVSSASL | 0.665
* PFALPPPPPLVP | 0.69
* VGVSGAGFSWGG | 0.712
* RFLLNPPLRCPP | 0.747
* PFLLVSHESSLE | 0.718
* IFGVSRTGIRCT | 0.56
* RLFIALFPPFYL | 0.64
* CVILVVISGLLG | 0.345
* DYHWPFIRTATE | 0.774
* GHGLLYLIDLCS | 0.638
* LSGYIFFSFRSF | 0.505
* PSPSTSLPPSPP | 0.684
* GQAWVEITARDS | 0.748
* VRFGWCLGSGDG | 0.702
* VCLGGWCMWGWR | 0.585
* YPLPFRHASIPF | 0.606
* SSPVDPLRPPAP | 0.704
* SPWSIHLILLQV | 0.318
* PPSLTPAALPAA | 0.745
* GASGGGRGNLEV | 0.727
* NRKKIKSIDVRK | 0.67
* DNLYSLEFMAIR | 0.566
* QNEKSKQCIKQT | 0.676
* VCFAWWGARCVA | 0.477
* FCHLGSPATDFR | 0.646
* RTWDNTRDLDEL | 0.656
* LSGTLALVVFTR | 0.646
* IFFRARRLEAHT | 0.608
* FVSSLLPLLTLL | 0.293
* FLSFTSLRTKGL | 0.743
* RARAIGVGAGRG | 0.691
* SAIALGCEGVYP | 0.685
* WIGCTVKIASLY | 0.437
* NGDPRVHTAVAR | 0.704
* ASTTSYNITLEC | 0.679
* AQSFRGVLLDVT | 0.706
* GDPADGACGPTR | 0.8
* PPPTHPTSTSSI | 0.699
* IKKKTKQKQHEK | 0.786
* RIPTALLAPYAQ | 0.649
* LPPSSPLPPPPP | 0.77
* VCILPVTCAGMF | 0.622
* AAHLLPSIHGYL | 0.669

* * *

# Tested on: Saccharomyces cerevisiae
# procedureSummary: protein stability index of tFT-peptide fusion (C-terminal peptide) (PSI (0-1 scale)); higher = more stable (slower turnover)
# testParameters: genetic background: wild type; temperature: 30 C
Consider the reported protein stability index of an entry and match it to a band in low value = under 0.2, medium value = from 0.2 up to 0.3, high value = 0.3 and over

• GELVLVMYGIWV = medium value
• LGRYHPWLLFLC = low value
• EMISRNVFTYLS = high value
• VLVVVRSLSFLS = high value
• PVGRSVFFVWFL = high value
• GWCLGFWCLLVC = low value
• KIIKERIRRIKI = low value
• CLILGLFSLIFL = high value
• GCVTFVLISFCA = medium value
• GVWLRAVRGFGV = high value
• CLAWWLGRVWVC = low value
• KRNLLYNIIVWI = low value
• GPTLLVSRIAVI = low value
• FRFGAKISLIVL = medium value
• MALAVRVVSCGA = medium value
• PDRSTILHISGF = high value

* * *

List of protein stability index values.
# System: Saccharomyces cerevisiae
# procedureSummary: protein stability index of tFT-peptide fusion (C-terminal peptide) (PSI (0-1 scale)); higher = more stable (slower turnover)
# testParameters: genetic background: wild type; temperature: 30 C
readoutLabel: protein stability index

* GWMLGAVRRGVI | 0.694
* SPPHPAALPSSP | 0.701
* QNNTRQQRKTPR | 0.683
* VLHGFGSLRDRV | 0.717
* TPSFTLNAYMLT | 0.693
* LAPLYFSPFPFP | 0.689
* VVLGGGVGRGCW | 0.691
* PSPPPLLTRPLP | 0.713

* * *

# Tested on: Saccharomyces cerevisiae
# procedureSummary: protein stability index of tFT-peptide fusion in wild type (PSI (0-1 scale)); higher = more stable (slower turnover)
# testParameters: genetic background: wild type
List of protein stability index values.
readoutLabel: protein stability index

* CTSCGYFFRTNN | 0.222
* LVDYLSCVACIN | 0.21
* TSLRVLLPLYFR | 0.294
* VRYAVGGWRLVG | 0.0921
* RSLRVLLPLYER | 0.645
* VSGAVGGWRLVG | 0.143
* ARWRCGLWRGAS | 0.574
* VGGAVGGWRLVG | 0.156
* RVTRLDAILFRI | 0.453
* RSLRVNLPLYFR | 0.18
* RVTRLEAIYFRI | 0.268
* LKILRQKMNSQN | 0.213
* RSLRVLLPQYFR | 0.642
* CLVSLLILLFFR | 0.319
* RVTRLDAKYFRI | 0.673
* RRIQPLPVQFLN | 0.0626
* FSMRWTFAYWVN | 0.047
* KKHKKGVKQKIN | 0.128
* PGLAASFWRVVG | 0.172
* KKHKKGQKQFIN | 0.209
* PSLATSFWRVVG | 0.158
* FSMRCTFRYWVN | 0.0458
* VRGAVGGWSLVG | 0.633
* RSLRVLLPLYFA | 0.286
* RVTRCDAIYFRI | 0.467
* FSMRWTFRYGVN | 0.338
* TSLAASFWRVVG | 0.125
* KKHKKGIKQKIN | 0.0645
* FSMRWTMRYWVN | 0.0449
* KKLKKGQKQKIN | 0.0797
* CTSCVYKFRTNN | 0.164
* CLVSLPILLIFR | 0.0669
* VRGAVGGWTLVG | 0.49
* PSLAASFFRVVG | 0.609
* ARWRVGEWRGAS | 0.677

* * *

# Test system: Saccharomyces cerevisiae
# procedureSummary: protein stability index of tFT-peptide fusion (C-terminal peptide) (PSI (0-1 scale)); higher = more stable (slower turnover)
# testParameters: genetic background: doa10 deletion; temperature: 30 C
readoutLabel: protein stability index

- GIFYVRTIWSCG: 0.145
- ECCKRFCCRFVA: 0.231
- RQINEKKKLYMI: 0.1
- RRRRGGQSPALR: 0.735
- GGLWRRLCLGVG: 0.3
- VGPLAPVCLLVL: 0.325
- RSKWEKLDKIVS: 0.314
- VTLVIYVLVQLT: 0.123
- HCLGWCFSRLSS: 0.186
- VVLAFFFWFFVG: 0.25
- SQKKKIKKYKET: 0.172
- SGLPLVILFLCL: 0.441
- VFWLLVGLGCFS: 0.41
- SVVYVIYCGGIL: 0.29

* * *

# Test system: Saccharomyces cerevisiae
# procedureSummary: protein stability index of tFT-peptide fusion (C-terminal peptide) (PSI (0-1 scale)); higher = more stable (slower turnover)
# testParameters: genetic background: das1 deletion; temperature: 30 C
readoutLabel: protein stability index

* TAAQMLEVQNEA [ARI1 C-terminal 12 aa] | 0.684
* YKQVSSHNSHSQ [CUP2 C-terminal 12 aa] | 0.68
* NVEDEYSYSLTL [VPS68 C-terminal 12 aa] | 0.701
* EQNAALGQGLGR [TIM9 C-terminal 12 aa] | 0.708
* SSIFVRVYKFWC [BAP3 C-terminal 12 aa] | 0.698
* IGTLIPEPGVNV [DAP1 C-terminal 12 aa] | 0.682
* FPEKNIVNLKSA [CHA1 C-terminal 12 aa] | 0.697
* SQGNVYLPGVAW [NOC4 C-terminal 12 aa] | 0.707
* RKAVDALRSLTN [ACK1 C-terminal 12 aa] | 0.719
* FKVASIANAQVR [ARC1 C-terminal 12 aa] | 0.689
* INDKYKSNRTDS [ATG2 C-terminal 12 aa] | 0.697
* RQNTLSLWRYRK [RPL15A C-terminal 12 aa] | 0.682
* DEEREDDNYVPQ [CBC2 C-terminal 12 aa] | 0.689
